Numbers sourced from ChEMBL document CHEMBL2413072.

tested on: CCRF-CEM; assay: Growth inhibition of human CCRF-CEM cells assessed as growth inhibition at 10 uM by sulforhodamine B assay; type: functional; settings: read-out: GI
Listed compounds paired with reported inhibition of growth at 10 µM

Use the examples below as a reference point.
CC1(C)C[C@@H](O)[C@]2(C(=O)O)CC[C@]3(C)C(=CC[C@@H]4[C@@]5(C)C/C(=C\C=C\c6ccccc6)C(=O)C(C)(C)[C@@H]5CC[C@]43C)[C@@H]2C1 | 80.1%
C/C=C(/C)C(=O)O[C@@H]1CC(C)(C)C[C@H]2C3=CC[C@@H]4[C@@]5(C)CC[C@H](O)C(C)(C)[C@@H]5CC[C@@]4(C)[C@]3(C)CC[C@@]12C(=O)O [Reduced Lantadene A] | 54.2%

Next compound, inhibition of growth at 10 µM to be filled in.
Tested system CCRF-CEM; inhibition of growth at 10 µM recorded for CC(C)=CC(=O)O[C@@H]1CC(C)(C)C[C@H]2C3=CC[C@@H]4[C@@]5(C)CC[C@H](O)C(C)(C)[C@@H]5CC[C@@]4(C)[C@]3(C)CC[C@@]12C(=O)O [Reduced Lantadene B] was 72.6%

---

system: SNB-75; assay: Growth inhibition of human SNB75 cells by sulforhodamine B assay; assay type: functional; conditions: read-out: pTGI (converted)
Below, each entry is listed with its recorded TGI.

Please fill in: TGI reported for CC1(C)C[C@@H](O)[C@]2(C(=O)O)CC[C@]3(C)C(=CC[C@@H]4[C@@]5(C)C/C(=C\C=C\c6ccccc6)C(=O)C(C)(C)[C@@H]5CC[C@]43C)[C@@H]2C1 = 20.9 µM

Sure, the documented TGI for C/C=C(/C)C(=O)O[C@@H]1CC(C)(C)C[C@H]2C3=CC[C@@H]4[C@@]5(C)CCC(=O)C(C)(C)[C@@H]5CC[C@@]4(C)[C@]3(C)CC[C@@]12C(=O)O is > 100 µM

---

assay: Growth inhibition of human EKVX cells assessed as growth inhibition at 10 uM by sulforhodamine B assay; format: functional; conditions: read-out: GI
Property name: inhibition of growth at 10 µM (%)
I only need the number, in %, no unit after it.

// known answers, use as guide
C/C=C(/C)C(=O)O[C@@H]1CC(C)(C)C[C@H]2C3=CC[C@@H]4[C@@]5(C)CC[C@H](O)C(C)(C)[C@@H]5CC[C@@]4(C)[C@]3(C)CC[C@@]12C(=O)O | 63.5
CC1(C)C[C@@H](O)[C@]2(C(=O)O)CC[C@]3(C)C(=CC[C@@H]4[C@@]5(C)C/C(=C\C=C\c6ccccc6)C(=O)C(C)(C)[C@@H]5CC[C@]43C)[C@@H]2C1 | 60.6

# next compound below
Kindly note the recorded inhibition of growth at 10 µM for CC(C)=CC(=O)O[C@@H]1CC(C)(C)C[C@H]2C3=CC[C@@H]4[C@@]5(C)CC[C@H](O)C(C)(C)[C@@H]5CC[C@@]4(C)[C@]3(C)CC[C@@]12C(=O)O , which is 52.3

---

Collected TGI values appear next to each entry.
system: DU-145; experiment: Growth inhibition of human DU145 cells by sulforhodamine B assay; format: functional; settings: read-out: TGI

Recorded results for 4 compounds are shown here.
CC(C)=CC(=O)O[C@@H]1CC(C)(C)C[C@H]2C3=CC[C@@H]4[C@@]5(C)CC[C@H](O)C(C)(C)[C@@H]5CC[C@@]4(C)[C@]3(C)CC[C@@]12C(=O)O | 23.5 µM
C/C=C(/C)C(=O)O[C@@H]1CC(C)(C)C[C@H]2C3=CC[C@@H]4[C@@]5(C)CCC(=O)C(C)(C)[C@@H]5CC[C@@]4(C)[C@]3(C)CC[C@@]12C(=O)O | > 100 µM
CC1(C)C[C@@H](O)[C@]2(C(=O)O)CC[C@]3(C)C(=CC[C@@H]4[C@@]5(C)C/C(=C\C=C\c6ccccc6)C(=O)C(C)(C)[C@@H]5CC[C@]43C)[C@@H]2C1 | 14.9 µM
CC(C)=CC(=O)O[C@@H]1CC(C)(C)C[C@H]2C3=CC[C@@H]4[C@@]5(C)CCC(=O)C(C)(C)[C@@H]5CC[C@@]4(C)[C@]3(C)CC[C@@]12C(=O)O | 25.1 µM

Record for C/C=C(/C)C(=O)O[C@@H]1CC(C)(C)C[C@H]2C3=CC[C@@H]4[C@@]5(C)CC[C@H](O)C(C)(C)[C@@H]5CC[C@@]4(C)[C@]3(C)CC[C@@]12C(=O)O under target or system DU-145: TGI reported as 4.04 µM
